Item-by-item account of IC50
- Tested system: IL-17A/A (Homo sapiens)
- Sequence (Q16552 24-155): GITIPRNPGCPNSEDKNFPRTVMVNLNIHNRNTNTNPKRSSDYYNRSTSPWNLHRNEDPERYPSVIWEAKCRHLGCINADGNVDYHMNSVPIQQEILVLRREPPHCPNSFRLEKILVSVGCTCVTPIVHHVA
- Test details: HEK-Blue IL-17A/A inhibition assay (SEAP reporter)
- Run parameters: HEK-Blue cells (HEK 293 expressing IL-17RA, IL-17RC, Act1); IL-17A/A stimulation; 20 hours; SEAP read at A630; 4-parameter fit

Previously resolved entries follow.
{"Compound": "CC(C(=O)NCC(F)(F)F)c1cc(F)c(NC(=O)[C@@H](NC(=O)c2ccnn2C(C)C)C(C2CC2)C2CC2)cc1C(F)(F)F (single isomer, unassigned) [Compound 120]", "IC50": "< 100 nM"}
{"Compound": "CCN(C)C(=O)C(C)c1cc(F)c(NC(=O)[C@@H](NC(=O)c2ccnn2CC)C(C2CC2)C2CC2)cc1C (stereo partly drawn)", "IC50": "100 to 1000 nM"}
{"Compound": "CC[C@@H](c1ccc(F)cc1)[C@H](NC(=O)c1ccnn1CC)C(=O)Nc1cc(C)c(C(C)C(=O)N(C)CC(F)(F)F)cc1F (stereo partly drawn)", "IC50": "< 100 nM"}
{"Compound": "CCOC(=O)CC(NC(=O)[C@@H](C)c1ccc(NC(=O)[C@@H](NC(=O)c2ccnn2C(C)C)C(C2CC2)C2CC2)c(F)c1)C(F)(F)F (stereo partly drawn)", "IC50": "< 100 nM"}

Request: Consider the compound CC(C)n1nccc1C(=O)N[C@H](C(=O)Nc1ccc([C@H](C)C(=O)NC(C(N)=O)C(F)(F)F)cc1F)C(C1CC1)C1CC1 (stereo partly drawn) and give its measured IC50.
Response: < 100 nM

Request: What does the data say about its IC50? Entry: CCn1nccc1C(=O)N[C@H](C(=O)Nc1cc(C)c(C(C)C(=O)N(C)CC(F)(F)F)cc1F)C(C1CC1)C1CC1 (single isomer, unassigned) [Compound 77]
Response: 100 to 1000 nM
